FYI, the data here is from patent US9682955B2.

target: UniProtKB P34972; assay: CB-2 in vitro cAMP assay (HTRF); settings: mean where tested more than once
measurement.type: EC50

What the record says about `O=C(CC(=O)N1CCC(Nc2ncnc3ccc(C(c4ccc(Cl)cc4)c4ccc(Cl)cc4)cc23)CC1)NCCO` : EC50 is > 10 µM

----------
target: Human CB2R (Cannabanoid receptor 2) (Homo sapiens (Human), UniProt P34972); experiment: CB-2 in vitro cAMP assay (HTRF); conditions: mean where tested more than once
Sequence (P34972 whole entry): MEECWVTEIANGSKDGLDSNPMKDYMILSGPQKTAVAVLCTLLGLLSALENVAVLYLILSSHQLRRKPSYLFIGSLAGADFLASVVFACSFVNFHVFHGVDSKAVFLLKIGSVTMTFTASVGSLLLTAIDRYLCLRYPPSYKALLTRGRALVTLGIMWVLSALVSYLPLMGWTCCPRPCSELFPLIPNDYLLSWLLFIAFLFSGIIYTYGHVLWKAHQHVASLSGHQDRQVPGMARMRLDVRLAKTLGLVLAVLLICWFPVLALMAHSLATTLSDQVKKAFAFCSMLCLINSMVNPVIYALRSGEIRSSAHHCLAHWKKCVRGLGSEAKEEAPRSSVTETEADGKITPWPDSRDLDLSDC
EC50 listing for selected compounds.

Answered examples (2):
NC(=O)CC(=O)N1CCC(Nc2ncnc3ccc(C(c4ccc(Cl)cc4)c4ccc(Cl)cc4)cc23)CC1
> 10 µM
Oc1cccc(CN2CCC(Nc3ncnc4ccc(C(c5ccc(Cl)cc5)c5ccc(Cl)cc5)cc34)CC2)c1
> 10 µM

Consider the record given below.
What the record says about `O=C(O)c1ccc(CN2CCC(Nc3ncnc4ccc(C(c5ccc(Cl)cc5)c5ccc(Cl)cc5)cc34)CC2)s1` : EC50 is > 10 µM

----------
EC50 listing for selected compounds.
biological target: Human CB1R (Cannabanoid receptor 1) (Homo sapiens (Human)); assay: CB-1 in vitro cAMP assay (HTRF); details: mean where tested more than once
Sequence (P21554 whole entry): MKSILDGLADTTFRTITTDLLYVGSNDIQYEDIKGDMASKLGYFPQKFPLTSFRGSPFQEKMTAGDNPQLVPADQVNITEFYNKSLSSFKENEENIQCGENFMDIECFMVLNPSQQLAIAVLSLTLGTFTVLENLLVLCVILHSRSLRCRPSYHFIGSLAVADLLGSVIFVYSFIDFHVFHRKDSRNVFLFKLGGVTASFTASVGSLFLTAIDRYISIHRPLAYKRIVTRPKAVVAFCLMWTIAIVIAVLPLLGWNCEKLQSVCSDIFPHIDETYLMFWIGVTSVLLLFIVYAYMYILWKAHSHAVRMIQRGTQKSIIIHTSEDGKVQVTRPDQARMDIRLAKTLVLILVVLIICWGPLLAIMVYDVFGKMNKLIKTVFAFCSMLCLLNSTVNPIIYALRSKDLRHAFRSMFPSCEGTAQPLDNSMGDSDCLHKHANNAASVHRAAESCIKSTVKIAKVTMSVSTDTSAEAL
Report only the number, with the unit nM understood.

Answered examples (2):
NC(=O)CCCOc1nc(NCc2ccc(C(F)(F)F)cc2)c2cc(C(c3ccc(Cl)cc3)c3ccc(Cl)cc3)ccc2n1
8
COC(=O)c1ccc(C(=O)N2CCC(Nc3ncnc4ccc(C(c5ccc(Cl)cc5)c5ccc(Cl)cc5)cc34)CC2)cc1
14

Consider the record given below.
What the record says about `O=S(=O)(c1ccccc1)N1CCC(Nc2ncnc3ccc(C(c4ccc(Cl)cc4)c4ccc(Cl)cc4)cc23)CC1` : EC50 is 4

----------
molecular target: UniProt P34972; test: CB-2 in vitro cAMP assay (HTRF); conditions: mean where tested more than once
measurement.type: EC50

What the record says about COC(=O)c1ccc(CN2CCC(Nc3ncnc4ccc(C(c5ccc(Cl)cc5)c5ccc(Cl)cc5)cc34)CC2)cc1 [Compound #43] : EC50 is > 10 µM

What the record says about COC(=O)c1ccc(CNc2ncnc3ccc(C(c4ccc(Cl)cc4)c4ccc(Cl)cc4)cc23)cc1 [compound 61] : EC50 is > 10 µM

What the record says about FC(F)(F)c1cccc(CNc2ncnc3ccc(C(c4ccc(Cl)cc4)c4ccc(Cl)cc4)cc23)c1 [Compound #136] : EC50 is > 10 µM
